tested on: MDA-MB-231 breast; assay: NCI tumour cell line growth inhibition, 48 h
TGI: recorded values
reported metric: TGI

[[record]]
compound = "CC(C)SC(NC(=O)C1C(C)(C)CCC1(C)C)C(=O)O (stereo not drawn)"
reported_metric = "TGI"
data_value = "> 100 µM"

[[record]]
compound = "CCOC(=O)c1ccc(Nc2nc3ccccc3nc2C(=O)OCC)cc1"
reported_metric = "TGI"
data_value = "> 100 µM"

[[record]]
compound = "O=c1oc2ccc(-n3c(=O)c4ccccc4c4ccccc4c3=O)cc2c2ccccc12"
reported_metric = "TGI"
data_value = "> 100 µM"


* * *

GI50: recorded values
system: UACC-62 melanoma; assay: NCI tumour cell line growth inhibition, 48 h
reported metric: GI50

[[record]]
molecule = "CCOC(=O)/C(=C(/C)NCC(C)C)c1cc(O)c(O)c2c(C)cc(=O)[nH]c12"
data_value = "7.12 µM"

[[record]]
molecule = "CCCCCCc1nc2nc(Cl)c(Cl)nc2[nH]1"
data_value = "3.2 µM"

[[record]]
molecule = "CCN(CC)CCCC(C)N=c1cc(Nc2cc(=NC(C)CCCN(CC)CC)c3cc(OC)ccc3o2)oc2ccc(OC)cc12 (stereo not drawn)"
data_value = "1.04 µM"

